- targetOfAssay: CDK9/cyclin T1 (Homo sapiens, UniProt P50750)
- Sequence (O60563 whole entry): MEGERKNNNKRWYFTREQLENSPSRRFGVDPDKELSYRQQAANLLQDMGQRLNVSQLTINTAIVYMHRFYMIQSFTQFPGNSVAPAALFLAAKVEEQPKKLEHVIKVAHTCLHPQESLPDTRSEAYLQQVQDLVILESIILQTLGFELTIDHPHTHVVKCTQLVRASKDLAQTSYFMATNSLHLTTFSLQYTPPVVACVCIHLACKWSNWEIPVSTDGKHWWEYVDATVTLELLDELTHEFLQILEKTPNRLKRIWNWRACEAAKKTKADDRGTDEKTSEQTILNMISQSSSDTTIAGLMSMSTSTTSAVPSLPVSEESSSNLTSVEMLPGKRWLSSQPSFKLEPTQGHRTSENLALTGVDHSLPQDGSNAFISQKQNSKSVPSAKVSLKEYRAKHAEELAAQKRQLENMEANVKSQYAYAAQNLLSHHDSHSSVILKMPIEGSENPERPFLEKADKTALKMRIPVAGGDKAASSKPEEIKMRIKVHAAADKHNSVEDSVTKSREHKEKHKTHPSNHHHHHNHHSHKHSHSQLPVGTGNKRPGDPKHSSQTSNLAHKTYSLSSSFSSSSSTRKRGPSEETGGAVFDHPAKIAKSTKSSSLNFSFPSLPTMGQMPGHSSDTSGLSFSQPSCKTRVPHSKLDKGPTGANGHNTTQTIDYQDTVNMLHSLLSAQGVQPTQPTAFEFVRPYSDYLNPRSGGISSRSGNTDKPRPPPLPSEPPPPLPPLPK
- Sequence (P50750 whole entry): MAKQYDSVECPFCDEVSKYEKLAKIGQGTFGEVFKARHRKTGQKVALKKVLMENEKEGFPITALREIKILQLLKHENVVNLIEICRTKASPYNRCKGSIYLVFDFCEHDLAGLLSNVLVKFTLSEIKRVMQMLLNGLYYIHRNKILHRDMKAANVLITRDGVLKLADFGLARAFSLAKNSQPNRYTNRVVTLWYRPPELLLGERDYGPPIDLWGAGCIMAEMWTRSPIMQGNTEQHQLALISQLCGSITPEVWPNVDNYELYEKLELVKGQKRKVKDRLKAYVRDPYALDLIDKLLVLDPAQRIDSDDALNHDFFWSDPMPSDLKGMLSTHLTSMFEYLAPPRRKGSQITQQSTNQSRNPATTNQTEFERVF
- measurementProtocol: inhibition of CDK9/CyclinT1
outcomeMeasure: log10 of Ki (log10 of the value in µM)
# log10 transformed; quantity=Ki; unit=µM

// output log10 of Ki; input Cc1nc2c(s1)-c1nc(N(C)c3cccc([N+](=O)[O-])c3)ncc1CC2 ; system CDK9/cyclin T1 (Homo sapiens, UniProt P50750)
1.08

Find the measured log10 of Ki of Cc1nc2c(s1)-c1nc(Nc3ccc(Cl)nc3)ncc1CC2 with CDK9/cyclin T1 (Homo sapiens, UniProt P50750) as test system.
0.08

Jot down log10 of Ki (CDK9/cyclin T1 (Homo sapiens, UniProt P50750)) of CN(C)c1ccc(Nc2ncc3c(n2)-c2sc(N)nc2CC3)cc1 .
-0.80

Under CDK9/cyclin T1 (Homo sapiens, UniProt P50750): report log10 of Ki of Nc1nc2c(s1)-c1nc(Nc3cccc([N+](=O)[O-])c3)ncc1CC2 .
-2.52

State the measured log10 of Ki (CDK9/cyclin T1 (Homo sapiens, UniProt P50750)) of Cc1nc2c(s1)-c1nc(Nc3ccccc3)ncc1CC2
-0.59

Give log10 of Ki for Cc1nc2c(s1)-c1nc(Nc3ccc(N(C)C)cc3)ncc1CC2 tested on CDK9/cyclin T1 (Homo sapiens, UniProt P50750).
-0.19

Write log10 of Ki of COC(=O)c1ccc(Nc2ncc3c(n2)-c2sc(C)nc2CC3)cc1 ; system used: CDK9/cyclin T1 (Homo sapiens, UniProt P50750)
-0.17

State log10 of Ki on CDK9/cyclin T1 (Homo sapiens, UniProt P50750). Entry: Cc1nc2c(s1)-c1nc(Nc3ccc(N4CCOCC4)cc3)ncc1CC2
-0.19

Jot down log10 of Ki (CDK9/cyclin T1 (Homo sapiens, UniProt P50750)) of Cc1nc2c(s1)-c1nc(Nc3cccc([N+](=O)[O-])c3)ncc1CC2 .
-2.70

Write log10 of Ki of Cc1nc2c(s1)-c1nc(Nc3cccc(O)c3)ncc1CC2 ; system used: CDK9/cyclin T1 (Homo sapiens, UniProt P50750)
-1.49

Return reported log10 of Ki for target or system CDK9/cyclin T1 (Homo sapiens, UniProt P50750), item Cc1nc2c(s1)-c1nc(Nc3ccc(C(F)(F)F)cc3)ncc1CC2 .
0.28

Give log10 of Ki only, for COc1ccc(Nc2ncc3c(n2)-c2sc(C)nc2CC3)cn1 , using CDK9/cyclin T1 (Homo sapiens, UniProt P50750) data.
0.00

Tell me log10 of Ki of Cc1nc2c(s1)-c1nc(Nc3ccc([N+](=O)[O-])cc3)ncc1CC2 when tested on CDK9/cyclin T1 (Homo sapiens, UniProt P50750).
-0.85

State log10 of Ki (CDK9/cyclin T1 (Homo sapiens, UniProt P50750)) of Cc1nc2c(s1)-c1nc(Nc3ccc(O)cc3)ncc1CC2 .
-0.31

With CDK9/cyclin T1 (Homo sapiens, UniProt P50750) as the test system, provide measured log10 of Ki for this molecule: Nc1nc2c(s1)-c1nc(Nc3ccccc3)ncc1CC2
-0.96

----------
- Test system: A549
- measurementProtocol: Antiproliferative activity against human A549 cells after 72 hrs by MTT assay
- Type: functional, cell-based
- setupConditions: A549, 72 h
outcomeMeasure: pIC50
Hey, just a heads up that pIC50 is the negative log base 10 of the concentration in molar.

Print A549 pIC50 for Cc1nc2c(s1)-c1nc(Nc3cccc([N+](=O)[O-])c3)ncc1CC2 .
6.16

----------
- targetOfAssay: Cyclin-dependent kinase 2/cyclin E1 (Homo sapiens, UniProt P24941)
- measurementProtocol: inhibition of CDK2/Cyclin E
Please go through the items and note down their pKi.
# pKi = -log10(concentration in molar units)

// fetch pKi; item: Cc1nc2c(s1)-c1nc(Nc3ccc(Cl)nc3)ncc1CC2 ; system: Cyclin-dependent kinase 2/cyclin E1 (Homo sapiens, UniProt P24941)
7.60

Determine reported pKi for Cc1nc2c(s1)-c1nc(N(C)c3cccc([N+](=O)[O-])c3)ncc1CC2 ; test system: Cyclin-dependent kinase 2/cyclin E1 (Homo sapiens, UniProt P24941).
6.23

Send back Cyclin-dependent kinase 2/cyclin E1 (Homo sapiens, UniProt P24941) pKi of Nc1nc2c(s1)-c1nc(Nc3cccc([N+](=O)[O-])c3)ncc1CC2 only.
9.00

Report pKi under test system Cyclin-dependent kinase 2/cyclin E1 (Homo sapiens, UniProt P24941) for Cc1nc2c(s1)-c1nc(Nc3cccc([N+](=O)[O-])c3)ncc1CC2 .
7.64

Write pKi of COC(=O)c1ccc(Nc2ncc3c(n2)-c2sc(C)nc2CC3)cc1 ; system used: Cyclin-dependent kinase 2/cyclin E1 (Homo sapiens, UniProt P24941)
6.04

State recorded pKi with Cyclin-dependent kinase 2/cyclin E1 (Homo sapiens, UniProt P24941), entry Cc1nc2c(s1)-c1nc(Nc3cccc(O)c3)ncc1CC2 , no comment.
7.96

----------
- targetOfAssay: Cyclin-dependent kinase 4/cyclin D1 (Homo sapiens, UniProt P11802)
- Sequence (P11802 whole entry): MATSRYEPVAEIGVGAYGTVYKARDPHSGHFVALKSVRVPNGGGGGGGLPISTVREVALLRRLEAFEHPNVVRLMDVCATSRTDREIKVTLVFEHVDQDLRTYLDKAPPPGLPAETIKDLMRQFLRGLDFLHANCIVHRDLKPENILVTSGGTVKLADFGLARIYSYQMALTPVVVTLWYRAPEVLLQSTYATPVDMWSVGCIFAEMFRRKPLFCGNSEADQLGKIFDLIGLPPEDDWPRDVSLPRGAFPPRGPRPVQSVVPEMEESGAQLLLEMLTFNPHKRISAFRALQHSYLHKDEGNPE
- Sequence (P24385 whole entry, further chain): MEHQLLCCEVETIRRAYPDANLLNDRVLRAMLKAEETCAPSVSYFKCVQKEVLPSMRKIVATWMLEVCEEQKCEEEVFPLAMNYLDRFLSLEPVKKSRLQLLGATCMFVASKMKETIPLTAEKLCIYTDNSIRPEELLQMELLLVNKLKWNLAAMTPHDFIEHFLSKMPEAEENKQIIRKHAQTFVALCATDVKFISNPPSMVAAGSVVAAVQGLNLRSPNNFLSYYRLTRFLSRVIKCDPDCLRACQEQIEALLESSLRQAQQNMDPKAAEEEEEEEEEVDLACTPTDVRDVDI
- measurementProtocol: inhibition of CDK4/Cyclin D1
pKi: −log10 of the molar value.
Kindly return met if reported pKi is no lower than 6; return not met if it is lower.

# check: pKi of COc1ccc(Nc2ncc3c(n2)-c2sc(C)nc2CC3)cn1 is greater than or equal to 6
met

Form field: pKi at least 6? Entry: Cc1nc2c(s1)-c1nc(Nc3ccc(N4CCOCC4)cc3)ncc1CC2
not met

Please indicate if the recorded pKi for CN(C)c1ccc(Nc2ncc3c(n2)-c2sc(N)nc2CC3)cc1 meets or exceeds 6.
met

Hello, I need to know if Cc1nc2c(s1)-c1nc(Nc3ccc(O)cc3)ncc1CC2 has measured pKi not below 6. Thanks!
met

pKi >= 6 for Cc1nc2c(s1)-c1nc(Nc3ccc(C(F)(F)F)cc3)ncc1CC2 ?
not met

----------
Assign Ki to each entry below.
- targetOfAssay: Cyclin-dependent kinase 7/ cyclin H (Homo sapiens)
- Sequence (P51946 whole entry): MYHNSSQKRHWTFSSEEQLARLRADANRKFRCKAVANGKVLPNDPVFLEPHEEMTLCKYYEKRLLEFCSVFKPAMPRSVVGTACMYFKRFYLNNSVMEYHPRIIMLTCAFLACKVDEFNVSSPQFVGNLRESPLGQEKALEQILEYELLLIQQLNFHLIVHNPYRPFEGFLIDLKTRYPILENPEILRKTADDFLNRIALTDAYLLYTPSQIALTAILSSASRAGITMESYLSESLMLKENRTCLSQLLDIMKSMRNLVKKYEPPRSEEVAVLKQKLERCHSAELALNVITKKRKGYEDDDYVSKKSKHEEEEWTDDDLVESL
- Sequence (P50613 whole entry): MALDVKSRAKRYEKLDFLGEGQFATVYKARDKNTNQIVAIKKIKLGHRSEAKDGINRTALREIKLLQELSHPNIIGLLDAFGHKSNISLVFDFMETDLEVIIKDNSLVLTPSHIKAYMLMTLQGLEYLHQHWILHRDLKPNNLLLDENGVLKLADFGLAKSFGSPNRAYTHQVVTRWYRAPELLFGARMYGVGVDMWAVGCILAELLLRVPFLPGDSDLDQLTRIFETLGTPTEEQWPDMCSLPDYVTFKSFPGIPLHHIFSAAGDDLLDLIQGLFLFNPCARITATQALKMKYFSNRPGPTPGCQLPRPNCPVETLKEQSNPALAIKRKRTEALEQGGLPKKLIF
- measurementProtocol: inhibition of CDK7/Cyclin H/MAT1
Number only, in µM; omit the unit.

Please give measured Ki of the following entry: Cc1nc2c(s1)-c1nc(Nc3cccc(O)c3)ncc1CC2
0.053

For the molecule COc1ccc(Nc2ncc3c(n2)-c2sc(C)nc2CC3)cn1 , give its measured Ki value.
1.1

// Input: Cc1nc2c(s1)-c1nc(Nc3ccc(N4CCOCC4)cc3)ncc1CC2 . Output its Ki only.
1

Tell me its Ki given Cc1nc2c(s1)-c1nc(Nc3ccc(N(C)C)cc3)ncc1CC2 as the entry.
0.06

Read the entry Cc1nc2c(s1)-c1nc(Nc3ccc(Cl)nc3)ncc1CC2 and write its reported Ki.
1.4

Name the recorded Ki of the molecule listed here: Cc1nc2c(s1)-c1nc(Nc3ccc([N+](=O)[O-])cc3)ncc1CC2
4.8

Item Cc1nc2c(s1)-c1nc(Nc3cccc([N+](=O)[O-])c3)ncc1CC2 : provide Ki
0.79

Supply measured Ki of CN(C)c1ccc(Nc2ncc3c(n2)-c2sc(N)nc2CC3)cc1 in your reply.
0.5

----------
- targetOfAssay: Cyclin-dependent kinase 1/cyclin B1 (Homo sapiens)
- Sequence (P06493 whole entry): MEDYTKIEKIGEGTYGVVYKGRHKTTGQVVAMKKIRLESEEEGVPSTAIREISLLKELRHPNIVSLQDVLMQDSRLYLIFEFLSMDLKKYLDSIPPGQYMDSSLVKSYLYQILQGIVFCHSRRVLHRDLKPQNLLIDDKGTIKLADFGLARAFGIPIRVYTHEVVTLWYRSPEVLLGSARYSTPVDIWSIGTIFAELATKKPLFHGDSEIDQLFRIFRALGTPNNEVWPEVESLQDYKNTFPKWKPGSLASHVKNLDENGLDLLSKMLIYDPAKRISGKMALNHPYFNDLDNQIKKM
- Sequence (P14635 whole entry, further chain): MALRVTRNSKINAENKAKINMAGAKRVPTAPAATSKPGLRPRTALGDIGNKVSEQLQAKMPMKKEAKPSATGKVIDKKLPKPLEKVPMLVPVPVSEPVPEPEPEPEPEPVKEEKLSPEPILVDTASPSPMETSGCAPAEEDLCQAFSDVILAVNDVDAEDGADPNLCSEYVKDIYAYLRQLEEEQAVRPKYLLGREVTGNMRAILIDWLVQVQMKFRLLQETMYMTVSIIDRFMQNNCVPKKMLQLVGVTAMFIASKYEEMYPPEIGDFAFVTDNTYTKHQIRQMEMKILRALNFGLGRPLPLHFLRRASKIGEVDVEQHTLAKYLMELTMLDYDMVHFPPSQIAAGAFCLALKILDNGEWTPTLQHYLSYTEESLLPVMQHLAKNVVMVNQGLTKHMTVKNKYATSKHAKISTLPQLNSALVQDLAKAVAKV
- measurementProtocol: inhibition of CDK1/Cyclin B
Please go through the items and note down their pKi.
Convention used: pKi is expressed as -log10 of the molar concentration.

Supply reported pKi belonging to this molecule: Cc1nc2c(s1)-c1nc(Nc3ccc(O)cc3)ncc1CC2
6.70

Supply measured pKi of Cc1nc2c(s1)-c1nc(N(C)c3cccc([N+](=O)[O-])c3)ncc1CC2 in your reply.
5.57

Quickly give me recorded pKi for Cc1nc2c(s1)-c1nc(Nc3ccc(N4CCOCC4)cc3)ncc1CC2
4.82

Return pKi (reported value) for this molecule: Cc1nc2c(s1)-c1nc(Nc3ccc([N+](=O)[O-])cc3)ncc1CC2
6.51

Indicate the recorded pKi value for this molecule: Cc1nc2c(s1)-c1nc(Nc3ccc(N(C)C)cc3)ncc1CC2
5.60

Tell me pKi reported for COc1ccc(Nc2ncc3c(n2)-c2sc(C)nc2CC3)cn1
7.11

Given the molecule CN(C)c1ccc(Nc2ncc3c(n2)-c2sc(N)nc2CC3)cc1 , write its reported pKi.
7.01

Specify pKi for Cc1nc2ccc3cnc(N(C)c4cccc([N+](=O)[O-])c4)nc3c2s1 and stop.
5.12

Find the measured pKi of Cc1nc2c(s1)-c1nc(Nc3ccccc3)ncc1CC2 and report it.
6.12

Let me know recorded pKi for Cc1nc2c(s1)-c1nc(Nc3ccc(Cl)nc3)ncc1CC2 , thanks.
7.72

Look up pKi of Nc1nc2c(s1)-c1nc(Nc3cccc([N+](=O)[O-])c3)ncc1CC2 and report it.
7.74

Input Cc1nc2c(s1)-c1nc(Nc3ccc(C(F)(F)F)cc3)ncc1CC2 , output reported pKi.
6.02

Provide measured pKi value, entry: Cc1nc2ccc3cnc(Nc4ccccc4)nc3c2s1
5.77

Note down pKi recorded for COC(=O)c1ccc(Nc2ncc3c(n2)-c2sc(C)nc2CC3)cc1
6.15

Give the value of pKi reported for the following: Nc1nc2c(s1)-c1nc(Nc3ccccc3)ncc1CC2
6.20

Input Cc1nc2c(s1)-c1nc(Nc3cccc(O)c3)ncc1CC2 , output reported pKi.
6.44

Give pKi for the following molecule: Cc1nc2c(s1)-c1nc(Nc3cccc([N+](=O)[O-])c3)ncc1CC2
6.49
